Reference source: patent US20240132519A1

system.under.test: binding between NRF2 and KEAP1 (Homo sapiens (Human))
Sequence (Q14145 whole entry): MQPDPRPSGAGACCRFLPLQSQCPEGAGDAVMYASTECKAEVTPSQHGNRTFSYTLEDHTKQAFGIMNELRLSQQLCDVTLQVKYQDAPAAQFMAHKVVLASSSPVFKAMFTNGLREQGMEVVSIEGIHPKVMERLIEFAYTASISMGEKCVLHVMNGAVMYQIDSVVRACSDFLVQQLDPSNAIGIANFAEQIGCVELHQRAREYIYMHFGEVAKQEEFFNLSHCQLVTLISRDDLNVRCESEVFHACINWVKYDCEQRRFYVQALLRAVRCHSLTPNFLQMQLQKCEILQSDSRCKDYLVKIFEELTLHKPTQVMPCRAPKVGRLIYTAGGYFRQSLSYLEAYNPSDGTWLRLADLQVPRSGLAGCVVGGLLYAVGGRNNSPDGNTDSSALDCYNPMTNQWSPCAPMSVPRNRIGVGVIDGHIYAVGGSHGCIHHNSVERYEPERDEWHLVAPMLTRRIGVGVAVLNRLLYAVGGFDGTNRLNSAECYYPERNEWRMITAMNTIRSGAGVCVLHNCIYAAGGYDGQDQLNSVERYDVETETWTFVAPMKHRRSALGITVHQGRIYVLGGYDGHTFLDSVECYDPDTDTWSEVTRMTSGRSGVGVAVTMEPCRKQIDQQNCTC
experiment.description: Binding assay: inhibition of binding between NRF2 and KEAP1 by BRET (NanoLuc-NRF2 and KEAP1-HaloTag cell lysates)
assay.conditions: Test Example 1-1; NRF2-KEAP1 BRET; N=2
Criterion: IC50 strictly less than 0.4 nM. Met: condition met. Not met: condition not met.

Challenge: Determine whether this compound shows IC50 lower than 0.4 nM (ties excluded): CC[C@@H]1CN(Cc2cc(C(CC(=O)O)c3sc(C(C)=O)cc3C)ccc2C)S(=O)(=O)c2ccccc2O1 (stereo partly drawn)
Response given: condition not met

Challenge: Determine whether this compound shows IC50 lower than 0.4 nM (ties excluded): CC[C@@H]1CN(Cc2cc(C(CC(=O)O)c3ccc(C(C)=O)s3)ccc2C)S(=O)(=O)c2cnccc2O1 (stereo partly drawn)
Response given: condition not met

Challenge: Determine whether this compound shows IC50 lower than 0.4 nM (ties excluded): CC[C@@H]1CN(Cc2cc(C(c3cc(F)c(C(C)=O)s3)C(C)(C)C(=O)O)ccc2C)S(=O)(=O)c2cnccc2O1 (stereo partly drawn)
Response given: condition met

Challenge: Determine whether this compound shows IC50 lower than 0.4 nM (ties excluded): CC[C@@H]1CN(Cc2cc(C(CC(=O)O)c3cc(F)c(C(C)=O)s3)ccc2C)S(=O)(=O)c2ccccc2O1 (stereo partly drawn)
Response given: condition met

Challenge: Determine whether this compound shows IC50 lower than 0.4 nM (ties excluded): CC[C@@H]1CN(Cc2cc(C(CC(=O)O)c3ccc(C(C)=O)s3)ccc2C)S(=O)(=O)c2ccccc2O1 (stereo partly drawn)
Response given: condition met

Challenge: Determine whether this compound shows IC50 lower than 0.4 nM (ties excluded): CC[C@@H]1CN(Cc2cc(C(c3cc(C)c(C(C)=O)s3)C(C)C(=O)O)ccc2C)S(=O)(=O)c2ccccc2O1 (stereo partly drawn)
Response given: condition met

Challenge: Determine whether this compound shows IC50 lower than 0.4 nM (ties excluded): CC[C@@H]1CN(Cc2cc(C(c3ccc(C(C)=O)s3)C(C)C(=O)O)ccc2C)S(=O)(=O)c2ccccc2O1 (stereo partly drawn)
Response given: condition met

Challenge: Determine whether this compound shows IC50 lower than 0.4 nM (ties excluded): CC[C@@H]1CN(Cc2cc(C(CC(=O)O)c3cc(C)c(C(C)=O)s3)ccc2C)S(=O)(=O)c2ccccc2O1 (stereo partly drawn)
Response given: condition met

Challenge: Determine whether this compound shows IC50 lower than 0.4 nM (ties excluded): CC[C@@H]1CN(Cc2cc(C(CC(=O)O)c3cccs3)ccc2C)S(=O)(=O)c2ccccc2O1 (stereo partly drawn)
Response given: condition not met

Challenge: Determine whether this compound shows IC50 lower than 0.4 nM (ties excluded): CC[C@@H]1CN(Cc2cc(C(CC(=O)O)c3ccc(C(=O)NC)s3)ccc2C)S(=O)(=O)c2ccccc2O1 (stereo partly drawn)
Response given: condition not met

Challenge: Determine whether this compound shows IC50 lower than 0.4 nM (ties excluded): CC[C@@H]1CN(Cc2cc(C(c3ccc(C(C)=O)s3)C(C)(C)C(=O)O)ccc2C)S(=O)(=O)c2ccccc2O1 (stereo partly drawn)
Response given: condition met

Challenge: Determine whether this compound shows IC50 lower than 0.4 nM (ties excluded): CC[C@@H]1CN(Cc2cc(C(c3ccc(C(C)=O)s3)C(C)C(=O)O)ccc2C)S(=O)(=O)c2cnccc2O1 (stereo partly drawn)
Response given: condition met

Challenge: Determine whether this compound shows IC50 lower than 0.4 nM (ties excluded): CC[C@@H]1CN(Cc2cc(C(CC(=O)O)c3csc(C(=O)NC)c3)ccc2C)S(=O)(=O)c2ccccc2O1 (stereo partly drawn)
Response given: condition not met

Challenge: Determine whether this compound shows IC50 lower than 0.4 nM (ties excluded): CC(=O)c1ccc(C(c2ccc(C)c(CN3C[C@@H](C)Oc4ccccc4S3(=O)=O)c2)C(C)(C)C(=O)O)s1 (stereo partly drawn)
Response given: condition met

Challenge: Determine whether this compound shows IC50 lower than 0.4 nM (ties excluded): CC[C@@H]1CN(Cc2cc(C(c3cc(F)c(C(C)=O)s3)C(C)(C)C(=O)O)ccc2C)S(=O)(=O)c2ccccc2O1 (stereo partly drawn)
Response given: condition met

Challenge: Determine whether this compound shows IC50 lower than 0.4 nM (ties excluded): CC[C@@H]1CN(Cc2cc(C(CC(=O)O)c3cc(C(C)=O)cs3)ccc2C)S(=O)(=O)c2ccccc2O1 (stereo partly drawn)
Response given: condition met

Challenge: Determine whether this compound shows IC50 lower than 0.4 nM (ties excluded): CC[C@@H]1CN(Cc2cc(C(c3ccc(C(C)=O)s3)C(C)(C)C(=O)O)ccc2C)S(=O)(=O)c2c(F)cccc2O1 (stereo partly drawn)
Response given: condition met

Challenge: Determine whether this compound shows IC50 lower than 0.4 nM (ties excluded): CC[C@@H]1CN(Cc2cc(C(c3cc(OC)c(C(C)=O)s3)C(C)(C)C(=O)O)ccc2C)S(=O)(=O)c2cnccc2O1 (stereo partly drawn)
Response given: condition met

Challenge: Determine whether this compound shows IC50 lower than 0.4 nM (ties excluded): CC[C@@H]1CN(Cc2cc(C(CC(=O)O)c3csc(C(C)=O)c3)ccc2C)S(=O)(=O)c2ccccc2O1 (stereo partly drawn)
Response given: condition not met

Challenge: Determine whether this compound shows IC50 lower than 0.4 nM (ties excluded): CC[C@@H]1CN(Cc2cc(C(c3cc(F)c(C(C)=O)s3)C(C)C(=O)O)ccc2C)S(=O)(=O)c2cnccc2O1 (stereo partly drawn)
Response given: condition met

Challenge: Determine whether this compound shows IC50 lower than 0.4 nM (ties excluded): CC[C@@H]1CN(Cc2cc(C(c3cc(C(C)=O)cs3)C(C)C(=O)O)ccc2C)S(=O)(=O)c2ccccc2O1 (stereo partly drawn)
Response given: condition met

Challenge: Determine whether this compound shows IC50 lower than 0.4 nM (ties excluded): CC[C@@H]1CN(Cc2cc(C(CC(=O)O)c3ccc(C#N)s3)ccc2C)S(=O)(=O)c2ccccc2O1 (stereo partly drawn)
Response given: condition not met

Challenge: Determine whether this compound shows IC50 lower than 0.4 nM (ties excluded): CC(=O)c1ccc(C(c2ccc(C)c(CN3CC(CCOCc4ccccc4)Oc4ccccc4S3(=O)=O)c2)C(C)C(=O)O)s1 (stereo not drawn)
Response given: condition not met
